- system-tested: Tyrosine-protein kinase receptor TYRO3 (Homo sapiens);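 further: reported percentages are averaged inhibition values of TYRO3 kinase activity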
- condition-details: at 0.1 µM
measurement-label: inhibition
Kindly format the answer as number then unit.

Observe how each entry below is paired with its result.
What value of inhibition has been recorded for this entry: Fc1ccc(-c2ncn(C3CCNCC3)c2-c2ccnc(Oc3ccc4c(c3)OCO4)n2)cc1
1.93%

Value lookup for inhibition; key = CCc1cccc(CC)c1/C=C/c1cncc(C(=O)NC)c1
1.2%

So what's the measured inhibition for this one? CS(=O)(=O)CCNCc1cc(-c2cc3c(Nc4ccc(OCc5cccc(F)c5)c(Cl)c4)ncnc3s2)cs1
2.21%

Further cases:
Given C#Cc1cccc(Nc2ncnc3ccc(OCCCCNCCS(C)(=O)=O)cc23)c1 , state its recorded inhibition.
2.65%

Could you tell me which inhibition is on file for Clc1ccc(CNc2nccc(-c3cnn4ncccc34)n2)cc1 ?
1.5%
